// data source = PubChem BioAssay AID931

# EXPERIMENT: Confirmation and Secondary Assay for Modulators of Hemoglobin Beta Chain Splicing at IVS2 654 locus: Cytotoxicity
# PROTOCOL CONDITIONS: HBB IVS2-654 splicing reporter cells; series mostly up to 46.1 µM
Results filed as inconclusive are left out. Calls of active or inactive are those of the source. The call rests on the fitted dose curve; in most records, active means well fitted cell-killing curve with a large enough effect; inconclusive means small, poorly fitted or top-dose-only effect; inactive means flat fitted curve, though single readings scatter.
Field 'call' accepts active, inactive

As a guide, the following entries are already answered.
OCC1OC(n2cnc3c(Cl)ncnc32)C(O)C1O (stereo not drawn) = inactive
O=c1[nH]c(=O)n(C2CC(O)C(CO)O2)cc1F (stereo not drawn) = inactive
Nc1ncn([C@@H]2O[C@H](CO)[C@@H](O)[C@H]2O)c(=O)n1 = active
S=C1NC=NC2N=CNC12 (stereo not drawn) = active
Nc1ncnc2c1nc(Br)n2C1OC(CO)C(O)C1O (stereo not drawn) = inactive

What did this assay record as the result for CSc1ncnc2c1ncn2C1OC(CO)C(O)C1O (stereo not drawn) ?
active

What did this assay record as the result for Nc1ncnc2c1nc(Cl)n2C1OC(CO)C(O)C1O (stereo not drawn) ?
inactive

What did this assay record as the result for `Nc1ccn([C@H]2CC[C@@H](CO)O2)c(=O)n1` ?
inactive
